The reported numbers originate from PubChem BioAssay AID488969.

- TARGET UNDER TEST: Metabotropic glutamate receptor 8 (Rattus norvegicus)
- PROCEDURE DETAILS: mGluR8 Gi/Go-coupled signaling modulation – cell-based, rat, thallium flux, HTS, primary screen (AID 488969)
- STUDY CONDITIONS: HEK293 rat mGluR8, GIRK thallium flux, FluoZin2; at 10 µM; stronger effect = higher value; submaximal glutamate (EC20) added with thallium
In all, about 110,000 compounds were measured (“z-score”: median about -0.1, highest 2% from about 2 on). This excerpt belongs to a sample that is enriched for the highest values.
OBSERVATION TYPE: z-score
When you answer, write just the number.

Ask: So what does the record say about z-score for `CN(CC(=O)Nc1ccncc1)S(=O)(=O)c1ccc(Br)cc1` ?
Result: -0.284

Ask: So what does the record say about z-score for CC1(C)CC(=O)C2=C(C1)OC(N)=C(C#N)C2c1cn(-c2ccccc2)nc1-c1ccc(F)cc1 (centres undefined) ?
Result: -0.436

Ask: So what does the record say about z-score for `O=C(NC(=S)Nc1ccc(S(=O)(=O)NC2CCCCC2)cc1)c1cccs1` ?
Result: 0.16

Ask: So what does the record say about z-score for CC1CN(C(=S)NC(=O)c2ccc([N+](=O)[O-])cc2)CC(C)O1 (centres undefined) ?
Result: 0.605

Ask: So what does the record say about z-score for `O=C(NC(=S)N1CCCc2ccccc21)c1ccc(Br)cc1` ?
Result: 9.56

Ask: So what does the record say about z-score for `COc1ccc(CNC(=O)C2CCN(c3nccs3)CC2)cc1` ?
Result: -0.318

Ask: So what does the record say about z-score for CCOc1ccccc1C(=O)NC(CO)C(=O)O (centres undefined) ?
Result: -0.109

Ask: So what does the record say about z-score for `CCN1C2=NCCCN2c2ccccc21` ?
Result: 0.0152

Ask: So what does the record say about z-score for `COC(=O)c1sccc1NC(=O)CSc1ccccc1NS(=O)(=O)c1ccc(Cl)cc1` ?
Result: 3.6

Ask: So what does the record say about z-score for `CC(=O)Nc1ccccc1C(=O)N1CCc2ccccc21` ?
Result: 1.03

Ask: So what does the record say about z-score for `COc1ccc(-c2nc(NC(=O)c3ccc(OCC(=O)N4CCOCC4)c(OC)c3)sc2C)cc1` ?
Result: -0.218

Ask: So what does the record say about z-score for Cc1ccc(CNC(=O)C(Cc2ccccc2)NS(=O)(=O)c2cccs2)cc1 (centres undefined) ?
Result: -0.105

Ask: So what does the record say about z-score for `Cc1ccc(CN2C3=NCCCN3c3ccccc32)cc1` ?
Result: 3.51

Ask: So what does the record say about z-score for `COC(=O)c1sccc1NC(=O)CN(C)NS(=O)(=O)c1ccc(Cl)cc1` ?
Result: -0.811

Ask: So what does the record say about z-score for O=C(O)c1ccccc1SC1CC(=O)N(C2CCCCC2)C1=O (centres undefined) ?
Result: -0.0935

Ask: So what does the record say about z-score for `CN(CC(=O)Nn1cnnc1)S(=O)(=O)c1ccccc1` ?
Result: -0.262

Ask: So what does the record say about z-score for COc1cc(C2Nn3c(nnc3-c3ccccc3OC)S2)ccc1O (centres undefined) ?
Result: -0.0272

Ask: So what does the record say about z-score for `Cc1cc(NC(=O)c2cc3ccccc3oc2=O)no1` ?
Result: 0.0723

Ask: So what does the record say about z-score for `CC(C)=CCC/C(C)=C/C=N/NC(=O)c1ccc([N+](=O)[O-])cc1` ?
Result: 1.52

Ask: So what does the record say about z-score for `O=C(NC(=S)N1CCc2ccccc21)c1ccccc1Br` ?
Result: 11.2

Ask: So what does the record say about z-score for `CN(C)S(=O)(=O)c1ccc(NC(=O)c2ccc(Br)o2)cc1` ?
Result: 0.638

Ask: So what does the record say about z-score for `CCc1ccc(/C=C/C(=O)c2ccc(N3CCOCC3)cc2)cc1` ?
Result: 0.286

Ask: So what does the record say about z-score for `CSc1ccccc1NC(=O)c1ccoc1C` ?
Result: -0.082

Ask: So what does the record say about z-score for `O=C(c1ccc(CS(=O)(=O)c2ccc(Br)cc2)o1)N1CCN(c2ncccn2)CC1` ?
Result: 3.31

Ask: So what does the record say about z-score for `CCCN1C2=NCCCN2c2ccccc21` ?
Result: 0.397

Ask: So what does the record say about z-score for `Cc1cc(C)[n+]2n1C(=O)C(c1ccccc1)=C2[O-]` ?
Result: 2.57

Ask: So what does the record say about z-score for `COc1ccc(NC(=O)C2CCN(C(=O)c3cccs3)CC2)cc1` ?
Result: 0.195

Ask: So what does the record say about z-score for `O=C(Nc1ccc(NC(=S)NC(=O)c2cccs2)cc1)c1ccccc1` ?
Result: -0.193

Ask: So what does the record say about z-score for O=C(CSc1nnc(Cc2cc(=O)[nH]c(=O)[nH]2)n1-c1ccccc1)NCC1CCCO1 (centres undefined) ?
Result: 0.18

Ask: So what does the record say about z-score for `CCc1nc(NCCCCCO)c2nnn(Cc3ccccc3F)c2n1` ?
Result: -0.538

Ask: So what does the record say about z-score for Cc1ccc2c(c1)NC(=O)C(CC(=O)NCCCN1CCCC1)O2 (centres undefined) ?
Result: 0.515

Ask: So what does the record say about z-score for `CC(=O)N1CCCc2ccccc21` ?
Result: 0.0326

Ask: So what does the record say about z-score for `COC(=O)c1sccc1NC(=O)Cc1ccc(Br)cc1` ?
Result: -0.0914

Ask: So what does the record say about z-score for `C#CCn1cc(/C=N/NC(=O)c2cc3ccccc3o2)c2ccccc21` ?
Result: -0.24

###

- TARGET UNDER TEST: Metabotropic glutamate receptor 8 (Rattus norvegicus)
- PROCEDURE DETAILS: mGluR8 Gi/Go-coupled signaling modulation – cell-based, rat, thallium flux, HTS, primary screen (AID 488969)
- STUDY CONDITIONS: HEK293 rat mGluR8, GIRK (G protein-gated inwardly rectifying potassium channel) thallium flux, FluoZin2; at 10 µM; stronger effect = higher value; submaximal glutamate (EC20) added with thallium
In all, about 110,000 compounds were measured (“z-score”: median about -0.1, highest 2% from about 2 on). Many of the other results were omitted from the sample, so the highest values are more common in it than they were. Calls of active or inactive are those of the source.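 How the source made its calls: active means z-score in the third read window above 3 or below -3; inactive means the rest.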
OBSERVATION TYPE: z-score

Ask: So what does the record say about z-score for `Cc1cc(N2CCOCC2)nc(NCc2ccccc2)n1` ?
Result: -0.0745

Ask: So what does the record say about z-score for `CN1CCN(Cc2cc(=O)oc3cc4c(cc23)CCC4)CC1` ?
Result: 0.745

Ask: So what does the record say about z-score for `NC(=S)N/N=C/c1ccc(-c2cc(Cl)cc(Cl)c2)o1` ?
Result: 0.987

Ask: So what does the record say about z-score for `O=C(NNS(=O)(=O)c1ccccc1F)c1cccc(S(=O)(=O)N2CCOCC2)c1` ?
Result: 10.4 (active)

Ask: So what does the record say about z-score for CC(=O)C1=C(c2ccccc2)NC(=S)NC1c1cc(Cl)c(OC(C)C)c(Cl)c1 (stereo not given) ?
Result: 0.616

Ask: So what does the record say about z-score for `NC(=S)N/N=C/c1ccc(-c2ccc(Cl)c(Cl)c2)o1` ?
Result: 0.653

Ask: So what does the record say about z-score for `O=C(Nc1ccc2c(c1)OCO2)N1CCOCC1` ?
Result: 0.476

Ask: So what does the record say about z-score for CC(NC(=O)Cc1cccs1)C(c1cccs1)N1CCOCC1 (stereo not given) ?
Result: -0.108

Ask: So what does the record say about z-score for O=C(NCC1CCCO1)c1ccc(CS(=O)(=O)c2c(Cl)cccc2Cl)o1 (stereo not given) ?
Result: -0.0453

Ask: So what does the record say about z-score for O=C(NCC(c1cccnc1)N1CCN(c2ccccc2F)CC1)c1cccc(Cl)c1 (stereo not given) ?
Result: 0.459

Ask: So what does the record say about z-score for CCNC(=O)NC(=O)C(C)OC(=O)c1cccnc1SC (stereo not given) ?
Result: -0.0754

Ask: So what does the record say about z-score for C=CCc1ccccc1OCC(O)CN1CCN(c2ccccc2F)CC1 (stereo not given) ?
Result: 0.0351

Ask: So what does the record say about z-score for `NNc1nc2ccc(F)cc2s1` ?
Result: -0.467

Ask: So what does the record say about z-score for `O=C(Nc1ccccc1)N1CCN(c2ccc(C(F)(F)F)cn2)CC1` ?
Result: -0.362

Ask: So what does the record say about z-score for `Cc1cc(Nc2ccc(Cl)cc2)nc(NCc2ccccc2)n1` ?
Result: -0.173

Ask: So what does the record say about z-score for N#C/C(=C(/O)C(Cl)c1ccccc1)c1nc2ccccc2s1 (stereo not given) ?
Result: -0.476

Ask: So what does the record say about z-score for O=C(Nc1ccc2c(c1)OCO2)N1CCN(C(=O)C2CCCO2)CC1 (stereo not given) ?
Result: 2.05

Ask: So what does the record say about z-score for `COc1ccc(Sc2cc(C(F)(F)F)nc(-c3ccccn3)n2)cc1` ?
Result: -0.417

Ask: So what does the record say about z-score for O=S(=O)(Cc1ccccc1Cl)CC(O)COc1ccccc1Cl (stereo not given) ?
Result: -0.273

Ask: So what does the record say about z-score for NC(=O)C1CCCN(S(=O)(=O)c2ccccc2)C1 (stereo not given) ?
Result: -0.127
